Entry source: the supplement of paper PMC6522484

system: SW480; assay: cell viability (CellTiter-Glo) relative to plate median (fraction of plate median); higher = more viable cells; details: 10 µM; treatment time 24 h; reporter: 7TFP
Counter-ions that a name gives are not always drawn.
Provide the reported cell viability of each item.
Answers are plain numbers.

These solved cases illustrate the format of a correct answer.
- compound: "c1ccc2c(-c3cnn4cc(-c5ccc(N6CCNCC6)cc5)cnc34)ccnc2c1"
  quantity: "cell viability"
  result value: 0.889
- compound: "CNC(=O)c1cccc(-c2ccc3c(N4CCOC[C@@H]4C)nc(N4CCOC[C@@H]4C)nc3n2)c1"
  quantity: "cell viability"
  result value: 1.07
- compound: "Cc1ccc(Nc2nccc(N(C)c3ccc4c(C)n(C)nc4c3)n2)cc1S(N)(=O)=O [Pazopanib HCl]"
  quantity: "cell viability"
  result value: 0.846

Fill in cell viability for each of the 4 compounds listed.
1. Cc1nc(NC(=O)N2CCC[C@H]2C(N)=O)sc1-c1ccnc(C(C)(C)C(F)(F)F)c1
2. NC(=O)c1ccc(-c2nc(-c3ccccn3)c(-c3ccc4c(c3)OCO4)[nH]2)cc1
3. CO[C@H]1C[C@@H]2CC[C@@H](C)[C@@](O)(O2)C(=O)C(=O)N2CCCC[C@H]2C(=O)O[C@H]([C@H](C)C[C@@H]2CC[C@@H](O)[C@H](OC)C2)CC(=O)[C@H](C)/C=C(\C)[C@@H](O)[C@@H](OC)C(=O)[C@H](C)C[C@H](C)/C=C/C=C/C=C/1C [Rapamycin (Sirolimus)]
4. Oc1ccc(-c2nc(-c3ccc(F)cc3)c(-c3ccncc3)[nH]2)cc1

output:
1: 1.09; 2: 0.829; 3: 1.24; 4: 0.916

For each entry beneath this line, provide reported cell viability.
1. c1cncc(CN2CCC(n3ncc4c(N5CCOCC5)nc(-c5ccc6[nH]ccc6c5)nc43)CC2)c1
2. CO[C@H]1C[C@@H]2CC[C@@H](C)[C@@](O)(O2)C(=O)C(=O)N2CCCC[C@H]2C(=O)O[C@H]([C@H](C)C[C@@H]2CC[C@@H](OCCO)[C@H](OC)C2)CC(=O)[C@H](C)/C=C(\C)[C@@H](O)[C@@H](OC)C(=O)[C@H](C)C[C@H](C)/C=C/C=C/C=C/1C [Everolimus (RAD001)]
3. O=C(NC1CCNCC1)c1n[nH]cc1NC(=O)c1c(Cl)cccc1Cl
4. CN(C)C1CCN(C(=O)c2ccc(NC(=O)Nc3ccc(-c4nc(N5CCOCC5)nc(N5CCOCC5)n4)cc3)cc2)CC1

output:
[1.19, 1.26, 1.31, 1.17]

Would you mind giving cell viability for every compound in the list below?
1. COc1cc(Nc2ncc(F)c(Nc3ccc4c(n3)N(COP(=O)(O)O)C(=O)C(C)(C)O4)n2)cc(OC)c1OC
2. O=C1NC(=O)/C(=C\c2ccc3nccnc3c2)S1
3. Nc1ncnc2c1c(-c1cnc3[nH]ccc3c1)nn2C1CCCC1
4. O=C(O)c1ccc(Nc2ncc3c(n2)-c2ccc(Cl)cc2C(c2c(F)cccc2F)=NC3)cc1
5. CN(C)Cc1cccc(N/C(=C2\C(=O)Nc3cc(C(N)=O)ccc32)c2ccccc2)c1
6. COc1cc(Nc2ncc(F)c(Nc3ccc4c(n3)NC(=O)C(C)(C)O4)n2)cc(OC)c1OC

output:
1: 0.919; 2: 0.854; 3: 0.967; 4: 1.01; 5: 1.08; 6: 1.01
